# measured-target: Sodium-dependent dopamine transporter (Homo sapiens); note: assay procedure not described here
# Sequence (Q01959 whole entry): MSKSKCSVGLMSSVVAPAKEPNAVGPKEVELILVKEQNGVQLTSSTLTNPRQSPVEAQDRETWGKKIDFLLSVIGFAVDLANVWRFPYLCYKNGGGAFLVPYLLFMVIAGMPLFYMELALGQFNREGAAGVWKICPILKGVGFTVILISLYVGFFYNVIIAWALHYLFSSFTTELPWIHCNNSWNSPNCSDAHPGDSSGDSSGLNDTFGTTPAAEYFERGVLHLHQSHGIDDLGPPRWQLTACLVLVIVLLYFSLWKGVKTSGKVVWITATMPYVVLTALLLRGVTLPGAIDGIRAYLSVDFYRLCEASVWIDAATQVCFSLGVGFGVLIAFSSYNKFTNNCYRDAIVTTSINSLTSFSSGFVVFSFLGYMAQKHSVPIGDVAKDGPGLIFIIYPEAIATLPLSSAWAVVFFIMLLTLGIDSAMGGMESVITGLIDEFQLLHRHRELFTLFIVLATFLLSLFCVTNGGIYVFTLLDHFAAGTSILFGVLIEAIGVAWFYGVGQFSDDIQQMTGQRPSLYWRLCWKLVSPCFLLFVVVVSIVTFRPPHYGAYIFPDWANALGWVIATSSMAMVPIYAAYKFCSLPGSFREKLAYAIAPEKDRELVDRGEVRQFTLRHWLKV
measured-property: AC50

COc1ccccc1OC1(C)OC(=O)c2ccccc2O1 (stereo not given) : > 30 µM
CCC(=O)O[C@](Cc1ccccc1)(c1ccccc1)[C@H](C)CN(C)C : > 10 µM
C/C=C(/C(=C/C)c1ccc(O)cc1)c1ccc(O)cc1 : > 30 µM
C[C@@H]1C[C@H]2[C@@H]3CCC4=CC(=O)C=C[C@]4(C)[C@@]3(F)[C@@H](O)C[C@]2(C)[C@@]1(O)C(=O)CO : > 30 µM
CC[C@H](C)C(=O)O[C@H]1C[C@@H](C)C=C2C=C[C@H](C)[C@H](CC[C@@H]3C[C@@H](O)CC(=O)O3)[C@H]21 : > 10 µM
C[N+]1(C)CCC(=C(c2ccccc2)c2ccccc2)CC1 : > 10 µM
CCN1CCCC1CNC(=O)c1cc(S(=O)(=O)CC)ccc1OC (stereo not given) [SULTOPRIDE] : > 30 µM
O=C(O)Cc1ccccc1Nc1c(Cl)cccc1Cl : > 30 µM
CC(=O)c1ccc(S(=O)(=O)NC(=O)NC2CCCCC2)cc1 [ACETOHEXAMIDE] : > 10 µM
CCCCOc1ccc(C(=O)CCN2CCCCC2)cc1 : 4.82 µM
CC(C)(O/N=C(\C(=O)N[C@@H]1C(=O)N2C(C(=O)[O-])=C(C[n+]3ccccc3)CS[C@H]12)c1csc(N)n1)C(=O)O : > 300 µM
CC1=C(/C=C/C(C)=C/C=C/C(C)=C/CO)C(C)(C)CCC1 : > 10 µM
OC[C@H]1O[C@@H](n2cnc3c2NC=NC[C@H]3O)C[C@@H]1O : > 30 µM
CC(C)N(CCCCOCC(=O)O)c1cnc(-c2ccccc2)c(-c2ccccc2)n1 : > 30 µM
CC(C)Cc1ccc([C@H](C)C(=O)O)cc1 : > 30 µM
O=C(NCCO[N+](=O)[O-])c1cccnc1 : > 30 µM
CN(C)Cc1nnc2n1-c1ccc(Cl)cc1C(c1ccccc1)=NC2 : > 10 µM
C[C@@H]1C[C@H]2[C@@H]3C[C@H](F)C4=CC(=O)C=C[C@]4(C)[C@@]3(F)[C@@H](O)C[C@]2(C)[C@@]1(OC(=O)c1ccco1)C(=O)SCF [FLUTICASONE FUROATE] : > 10 µM
O=C1OC(OC(=O)c2cccnc2Nc2cccc(C(F)(F)F)c2)c2ccccc21 (stereo not given) [TALNIFLUMATE] : > 30 µM
CCCC(C)(COC(N)=O)COC(N)=O [MEPROBAMATE] : > 10 µM
O=C(c1cc(Cc2n[nH]c(=O)c3ccccc23)ccc1F)N1CCN(C(=O)C2CC2)CC1 : > 30 µM
Cc1ccccc1N1C(=O)c2cc(S(N)(=O)=O)c(Cl)cc2NC1C (stereo not given) : > 10 µM
Cc1cccc(C)c1NC(=O)CC12CCCN1CCC2 [PILSICAINIDE] : > 30 µM
C[N+](C)(C)CCOP(=O)([O-])OC[C@H](O)CO : > 30 µM
C[C@]12CCC(=O)C[C@@H]1CC[C@@H]1[C@@H]2CC[C@]2(C)[C@@H](O)CC[C@@H]12 : > 30 µM
